Just for reference, patent US8563542B2 is where these values come from.

Biological target: AA (Homo sapiens)
Sequence (O14965 1-403): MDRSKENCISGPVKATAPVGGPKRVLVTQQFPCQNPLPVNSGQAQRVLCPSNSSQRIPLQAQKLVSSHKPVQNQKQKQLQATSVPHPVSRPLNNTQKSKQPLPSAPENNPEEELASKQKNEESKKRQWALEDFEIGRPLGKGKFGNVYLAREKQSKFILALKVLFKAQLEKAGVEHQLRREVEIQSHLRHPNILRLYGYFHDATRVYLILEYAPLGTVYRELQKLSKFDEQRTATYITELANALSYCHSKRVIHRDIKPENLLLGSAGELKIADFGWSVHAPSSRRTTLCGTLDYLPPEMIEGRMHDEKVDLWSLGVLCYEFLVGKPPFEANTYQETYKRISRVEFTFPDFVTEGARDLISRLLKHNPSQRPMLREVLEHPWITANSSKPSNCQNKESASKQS
Experiment: AA IC50 (Table 1; no method given)
Assay type: biochemical
Details: Table 1; read-out: AA IC50
Below: a set of entries, each annotated with reported IC50.

COc1cc(C(=O)O)ccc1Nc1ncc2c(n1)N(C1CCCC1)CCC(=O)N2C	1 to 10 µM
CC1CC(=O)N(C)c2cnc(Nc3ccc(C(=O)NC4CCN(C)CC4)cc3)nc2N1C1CCCC1 (stereo not shown)	0.1 to 1 µM
CN1C(=O)CCN(c2ccccc2)c2nc(Nc3ccc(C(=O)O)cc3)ncc21	0.1 to 1 µM
COc1cc(C(=O)O)ccc1Nc1ncc2c(n1)N(C1CCCCC1)CCC(=O)N2	1 to 10 µM
CC1CN(C2CCCC2)c2nc(Nc3ccc(C(=O)NC4CCN(C)CC4)cc3)ncc2NC1=O (stereo not shown)	1 to 10 µM
CC1CC(=O)N(C)c2cnc(Nc3ccc(C(=O)O)cc3)nc2N1C1CCCC1 (stereo not shown)	< 0.1 µM

Moving on to another compound below.
Please look up its IC50: CC1CC(=O)Nc2cnc(Nc3ccc(C(=O)O)cc3)nc2N1C1CCCC1 (stereo not shown)
1 to 10 µM
